- Test system: Nucleic Acid
- PROTOCOL DETAILS: Stabilization of human G4-KIT2 DNA quadruplex assessed as melting temperature by FRET assay
- Type: nucleic-acid assay
Documented ΔTm across a set of molecules
PROPERTY MEASURED: ΔTm (°C)

INSERT INTO assay_data (smiles_string, study_system, readout_number) VALUES
  ('CN(C)c1ccc(Nc2c3ccc(NC(=O)CCN4CCCC4)cc3nc3cc(NC(=O)CCN4CCCC4)ccc23)cc1', 'Nucleic Acid', 18.5),
  ('C[n+]1ccc(-c2c3nc(c(-c4cc[n+](C)cc4)c4ccc([nH]4)c(-c4cc[n+](C)cc4)c4ccc([nH]4)c(-c4cc[n+](C)cc4)c4nc2C=C4)C=C3)cc1', 'Nucleic Acid', 21.6),
  ('Cc1ccc(NC(=O)c2ccc(CN3CCN(C)CC3)cc2)cc1Nc1nccc(-c2cccnc2)n1', 'Nucleic Acid', 0.2),
  ('O=C1c2cc(NCCN3CCCC3)c3c4c(cc(NCCN5CCCC5)c(c24)C(=O)N1CCN1CCCC1)C(=O)N(CCN1CCCC1)C3=O', 'Nucleic Acid', 29);
